This collection of values is drawn from patent US12617777B2.

molecular target: human GPR84 receptor (Homo sapiens); construct: host or cells: HEK293, transient transfection; assay: Gαi biosensor BRET assay in HEK293 cells (antagonism of ZQ-16); type: cell-based; settings: HEK293, single concentration 10 μM (designated F)
Recorded inhibition at 10 µM, one value per entry.

Worked cases, answers included:
# COMPOUND, inhibition at 10 µM
measured = [
    ("CC(C)C#Cc1cnc(-c2cn(CC3OCC4(CC4)CO3)nn2)c(OC2CC2)c1", "> 75%"),
    ("Cc1cc(C#CCN2CC(C)(C)C2)ccc1-c1cn(CC2OCC(C)(C)CO2)nn1", "> 75%"),
    ("Cc1cc(N2CCN(Cc3ccncc3)CC2)ccc1-c1cn(CC2CCCCO2)nn1 (stereo not shown)", "50 to 75%"),
]

Now look at this entry.
Would you kindly share the measured inhibition at 10 µM for CC1(C)COC(Cn2cc(Oc3ccccc3)nn2)OC1 ?
≤ 25%

* * *

biological target: human GPR84 receptor (Homo sapiens); construct: host or cells: HEK293, transient transfection; test: Gαi biosensor BRET assay in HEK293 cells (antagonism of ZQ-16); assay type: cell-based; details: HEK293, single concentration 25 μM (designated I)
READOUT_LABEL: inhibition at 25 µM

# COMPOUND, inhibition at 25 µM
data = [
    ("Cc1cc(C#CC2CC2)ccc1-n1cc(CN2CCCCC2)nn1", "≤ 25%"),
]

Would you kindly share the measured inhibition at 25 µM for CC(C)C#Cc1ccc(-c2cn(CC3CCCCO3)nn2)cc1 (centres unmarked) ?
≤ 25%

Would you kindly share the measured inhibition at 25 µM for C(#CC1CC1)c1ccc(-c2cn(C[C@H]3COCCO3)nn2)cc1 ?
≤ 25%

Would you kindly share the measured inhibition at 25 µM for C(#CC1CC1)c1ccc(-c2cn(C[C@H]3CCCCO3)nn2)nc1 ?
25 to 50%

Would you kindly share the measured inhibition at 25 µM for C(#CC1CC1)c1cccc(-c2nnn(CC3CCCCO3)n2)c1 (centres unmarked) ?
25 to 50%

* * *

Recorded IC50, one value per entry.
Biological target: human GPR84 receptor (Homo sapiens)
Assay: Gαi biosensor BRET assay in HEK293 cells (antagonism of ZQ-16)
Conditions: HEK293 cells, antagonism of 200 nmol/L ZQ-16
Experimental: Background—The following assays can be used for determination of GPR84 activation in living HEK293 cells. […] Bioluminescence Resonance Energy Transfer (BRET) Measurement—HEK293 cells were transfected with GPR84-Rluc8 and rGFP-FYVE for the EEs trafficking biosensor or with GPR84, Gαi2-Rluc8, GFP10-Gγ2, and Gβ1 for the Gαi biosensor. […] The BRET signal was calculated as the ratio of light emitted by acceptor (GFP10, rGFP) over the light emitted by donor (Rluc8). […]

# MOLECULE, READOUT_LABEL, ASSAY_VALUE
data = [
    ("Cc1cc(C#CCN(C)C2CC2)ccc1-c1cn(CC2OCC(C)(C)CO2)nn1 [Compound I-698]", "IC50", "300 to 1000 nM"),
    ("Cc1cc(N2CC3(CCN(C(=O)c4ccccc4)CC3)C2)ccc1-c1cn(CC2CCCCO2)nn1 (centres unmarked) [Compound I-310]", "IC50", "1000 to 3000 nM"),
    ("Cc1cc(C#CCN2CCN(c3ccccc3)CC2)ccc1-c1cn(CC2CCCCO2)nn1 (centres unmarked) [Compound I-867]", "IC50", "≤ 300 nM"),
    ("Cc1cc(C#CCn2cc(-c3ccccc3)nn2)cnc1-c1cn(CC2CCCCO2)nn1 (centres unmarked) [Compound I-720]", "IC50", "300 to 1000 nM"),
    ("Cc1cc(C#CCN(C)Cc2ccccc2)ccc1-c1cn(CC2CCCCO2)nn1 (centres unmarked) [Compound I-76]", "IC50", "300 to 1000 nM"),
    ("Cc1cc(C#CCn2cc(-c3ccc(N(C)C)cc3)nn2)cnc1-c1cn(CC2CCCCO2)nn1 (centres unmarked) [Compound I-712]", "IC50", "≤ 300 nM"),
    ("CC1(C)COC(Cn2cc(-c3ncc(C#CCOC4CC4)cc3OC3CC3)nn2)OC1 [Compound I-758]", "IC50", "≤ 300 nM"),
    ("CCc1cc(N2CC(C)(CO)C2)cnc1-c1cn(CC2CC(C)(C)CO2)nn1 (centres unmarked) [Compound I-500]", "IC50", "1000 to 3000 nM"),
    ("Cc1cc(C#CCn2cc(-c3ccc(N(C)C)cc3)nn2)ccc1-c1cn(CC2CCCCO2)nn1 (centres unmarked) [Compound I-456]", "IC50", "≤ 300 nM"),
    ("Cc1cc(C#CCNC2CC2)ccc1-c1cn(CC2OCC(C)(C)CO2)nn1 [Compound I-697]", "IC50", "300 to 1000 nM"),
]

Would you kindly share the measured IC50 for CC(C)Oc1cc(C#CCN2CC(C)(C)C2)ccc1-c1cn(C[C@H]2CCCCO2)nn1 [Compound I-413] ?
300 to 1000 nM

Would you kindly share the measured IC50 for Cc1cc(C#CCNC(=O)OC(C)(C)C)cnc1-c1cn(CC2CCCCO2)nn1 (centres unmarked) [Compound I-538] ?
300 to 1000 nM

Would you kindly share the measured IC50 for Cc1cc(N2CC(C)(C)C2)cnc1-c1cn(CC2CCCCO2)cn1 (centres unmarked) [Compound I-609] ?
> 3000 nM

Would you kindly share the measured IC50 for Cc1cc(C#CCNC(=O)c2ccccc2)ccc1-c1cn(CC2CCCCO2)nn1 (centres unmarked) [Compound I-209] ?
> 2000 nM

Would you kindly share the measured IC50 for Cc1cc(C#CC2CC2)ccc1-c1cn(C[C@@H]2CCCCO2)nn1 [Compound I-174] ?
> 3000 nM

Would you kindly share the measured IC50 for Cc1cc(C#CC2CC2)ccc1-c1cn(C[C@H]2CCCCO2)nn1 [Compound I-175] ?
1000 to 3000 nM

Would you kindly share the measured IC50 for Cc1cc(N2CC(C)(CO)C2)c(F)cc1-c1cn(C[C@H]2CCCCO2)nn1 [Compound I-804] ?
300 to 1000 nM

* * *

target: human GPR84 receptor (Homo sapiens, UniProt Q9NQS5); construct: host or cells: HEK293, transient transfection; test: Gαi biosensor BRET assay in HEK293 cells (antagonism of ZQ-16); format: cell-based; details: HEK293, single concentration 10 μM (designated F)
Sequence (Q9NQS5 whole entry): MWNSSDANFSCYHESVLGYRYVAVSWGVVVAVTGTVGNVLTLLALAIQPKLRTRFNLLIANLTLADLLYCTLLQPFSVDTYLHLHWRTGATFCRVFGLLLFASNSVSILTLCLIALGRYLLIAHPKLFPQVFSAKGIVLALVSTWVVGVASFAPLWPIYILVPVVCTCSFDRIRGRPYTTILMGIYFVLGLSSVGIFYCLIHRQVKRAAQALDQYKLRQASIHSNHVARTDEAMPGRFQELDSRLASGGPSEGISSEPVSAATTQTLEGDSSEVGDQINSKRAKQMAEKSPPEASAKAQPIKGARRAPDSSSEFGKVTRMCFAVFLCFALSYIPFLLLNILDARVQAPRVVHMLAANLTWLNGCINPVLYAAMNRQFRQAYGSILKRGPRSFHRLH
READOUT_LABEL: inhibition at 10 µM

# COMPOUND, ASSAY_VALUE
records = [
    ("COCC#Cc1cnc(-c2cn(CC3CCCCO3)nn2)c(C)c1 (stereo not drawn)", "50 to 75%"),
    ("COc1cc(C)c(-c2cn(CC3CCCCO3)nn2)cc1OC (stereo not drawn)", "≤ 25%"),
    ("Cc1cc(N2CCC(N(C)Cc3ccccc3)CC2)ccc1-c1cn(CC2CCCCO2)nn1 (stereo not drawn)", "≤ 25%"),
    ("Cc1cc(N2CC3(C2)CN(c2ccccn2)C3)ccc1-c1cn(CC2OCC(C)(C)CO2)nn1", "> 75%"),
    ("CC(C)OCC#Cc1cnc(-c2cn(CC3OCC(C)(C)CO3)nn2)c(OC(C)C)c1", "≤ 25%"),
]

Would you kindly share the measured inhibition at 10 µM for CCc1cc(C#CC2CC2)cnc1-c1cn(CC2CCCCO2)nn1 (stereo not drawn) ?
> 75%

Would you kindly share the measured inhibition at 10 µM for Cc1cc(C#CCNc2ccccc2)ccc1-c1cn(Cc2ccccn2)nn1 ?
≤ 25%

Would you kindly share the measured inhibition at 10 µM for Cc1cc(N2CC3(CCCN3)C2)ccc1-c1cn(CC2CCCCO2)nn1 (stereo not drawn) ?
≤ 25%

Would you kindly share the measured inhibition at 10 µM for Cc1cc(CCCCN2CCCCC2)ccc1-c1cn(CC2CCCCO2)nn1 (stereo not drawn) ?
≤ 25%

* * *

target: human GPR84 receptor (Homo sapiens, UniProt Q9NQS5); construct: host or cells: HEK293, transient transfection; experiment: Gαi biosensor BRET assay in HEK293 cells (antagonism of ZQ-16); assay type: cell-based; conditions: HEK293, single concentration 2 μM (designated A)
Recorded inhibition at 2 µM, one value per entry.

Worked cases, answers included:
# COMPOUND, READOUT_LABEL, ASSAY_VALUE
records = [
    ("Cc1cc(C#CC2CC2)ccc1-c1cn(CC23CC4CC(CC(C4)O2)C3)nn1 [Compound I-523]", "inhibition at 2 µM", "≤ 25%"),
    ("Cc1cc(N2CC(C)(CNc3ccccn3)C2)ccc1-c1cn(CC2CCCCO2)nn1 (stereo not drawn) [Compound I-464]", "inhibition at 2 µM", "> 75%"),
    ("Cc1cc(C#CCn2cc(-c3ccc(N(C)C)cc3)nn2)cnc1-c1cn(CC2OCC(C)(C)CO2)nn1 [Compound I-668]", "inhibition at 2 µM", "> 75%"),
]

Record CC1(C)COC(Cn2cc(-c3ncc(C#CCN4CC(C)(C)C4)cc3OC3CC3)nn2)OC1 [Compound I-709] : what is its inhibition at 2 µM with human GPR84 receptor (Homo sapiens, UniProt Q9NQS5)?
> 75%

Record CC(C)Oc1cc(C#CC2CC(F)(F)C2)cnc1-c1cn(CC2CCCCO2)nn1 (stereo not drawn) [Compound I-649] : what is its inhibition at 2 µM with human GPR84 receptor (Homo sapiens, UniProt Q9NQS5)?
> 75%

Record FC(F)(F)Cc1cc(N2CCN(Cc3ccccn3)CC2)ccc1-c1cn(C[C@H]2CCCCO2)nn1 [Compound I-746] : what is its inhibition at 2 µM with human GPR84 receptor (Homo sapiens, UniProt Q9NQS5)?
> 75%

Record Cc1cc(OC2CN(Cc3ccccn3)C2)ccc1-c1cn(CC2CCCCO2)nn1 (stereo not drawn) [Compound I-514] : what is its inhibition at 2 µM with human GPR84 receptor (Homo sapiens, UniProt Q9NQS5)?
≤ 25%

Record CCc1cc(C#CCN2CC(C)(C)C2)cnc1-c1cn(CC2OCC(C)(C)CO2)nn1 [Compound I-666] : what is its inhibition at 2 µM with human GPR84 receptor (Homo sapiens, UniProt Q9NQS5)?
> 75%

Record Cc1ccc(C#CC2CC2)cc1C1(c2cn(CC3OCC(C)(C)CO3)nn2)OCCO1 [Compound I-721] : what is its inhibition at 2 µM with human GPR84 receptor (Homo sapiens, UniProt Q9NQS5)?
> 75%

Record OCC#Cc1ccc(-c2cn(CC3OCC4(CCC4)O3)nn2)c(CC(F)(F)F)c1 (stereo not drawn) [Compound I-808] : what is its inhibition at 2 µM with human GPR84 receptor (Homo sapiens, UniProt Q9NQS5)?
> 75%

Record Cc1cc(C#CCN2CC(C)(C)C2)ccc1-c1cn(CC2OCC(F)(F)CO2)nn1 [Compound I-700] : what is its inhibition at 2 µM with human GPR84 receptor (Homo sapiens, UniProt Q9NQS5)?
50 to 75%

Record Cc1ccc(C#CC2CC2)cc1C(OC1CC1)c1cn(CC2OCC(C)(C)CO2)nn1 (stereo not drawn) [Compound I-644] : what is its inhibition at 2 µM with human GPR84 receptor (Homo sapiens, UniProt Q9NQS5)?
> 75%
